Tested on: COLO 205 colon
Assay: NCI tumour cell line growth inhibition, 48 h
TGI by entry:
Outcome Measure: TGI

Compound	Target Entity	Result
CC(=O)Nc1ccc(N2C(=O)/C(=C\c3cccc(Oc4ccccc4)c3)SC2c2ccccc2)cc1 (stereo unspecified)	COLO 205 colon	> 100 µM
COC1OC(COC(=O)NCCCCC(=O)C(F)(F)F)C(O)C(O)C1O (stereo unspecified)	COLO 205 colon	> 100 µM
CN(C)C(=C1c2cc([N+](=O)[O-])ccc2-c2ccc([N+](=O)[O-])cc21)N(C)C	COLO 205 colon	> 100 µM
Oc1cc(Cl)ccc1Oc1ccc(Cl)cc1Cl	COLO 205 colon	13.3 µM
Nc1nnc(-c2ccco2)c(-c2ccco2)n1	COLO 205 colon	> 100 µM
O=C(O)C/C(=C\c1ccccc1)C(=O)O	COLO 205 colon	> 100 µM
N#Cc1c2c([nH]c(=O)c1C#N)CCCC2	COLO 205 colon	> 100 µM
COc1ccc(C2NC3=C(CCCC3)C3(C#N)C(=O)N=C(N)C23C#N)cc1 (stereo unspecified)	COLO 205 colon	> 100 µM
O=C(NN1C(=O)CSC1c1ccc(Cl)cc1)c1[nH]c2ccc(F)cc2c1-c1ccccc1 (stereo unspecified)	COLO 205 colon	4.81 µM
CN=C(N)N/N=C(\C)c1ccc2oc3ccc(/C(C)=N/NC(N)=NC)cc3c2c1	COLO 205 colon	> 100 µM
O=c1cccccc1NCCCCCCCCCNc1cccccc1=O	COLO 205 colon	26.2 µM
